- system: HCV NS5B (Hepatitis C virus genotype 1b, UniProt Q9WMX2)
- Construct: The protein was expressed with an 18 amino acid C-terminal truncation to enhance the solubility; made in house; host or cells: E. coli BL21(DE3)
- Sequence (Q9WMX2 2420-2992): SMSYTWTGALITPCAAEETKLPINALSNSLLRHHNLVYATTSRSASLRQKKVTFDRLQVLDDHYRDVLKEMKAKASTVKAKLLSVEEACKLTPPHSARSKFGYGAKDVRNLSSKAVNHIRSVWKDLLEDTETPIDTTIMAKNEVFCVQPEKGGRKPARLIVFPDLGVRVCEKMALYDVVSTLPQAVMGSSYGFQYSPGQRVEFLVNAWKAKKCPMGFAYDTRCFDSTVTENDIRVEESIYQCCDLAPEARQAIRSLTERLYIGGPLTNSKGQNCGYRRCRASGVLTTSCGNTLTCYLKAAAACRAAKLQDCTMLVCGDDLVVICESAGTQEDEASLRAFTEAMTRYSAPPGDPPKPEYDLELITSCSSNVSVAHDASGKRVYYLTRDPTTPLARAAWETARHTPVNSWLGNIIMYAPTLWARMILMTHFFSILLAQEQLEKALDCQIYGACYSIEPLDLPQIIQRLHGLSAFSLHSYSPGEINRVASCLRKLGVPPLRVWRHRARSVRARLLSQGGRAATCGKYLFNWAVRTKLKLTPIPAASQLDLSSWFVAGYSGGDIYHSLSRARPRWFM
- test-method-notes: HCV NS5B RdRp enzyme assay (standard or modified)
- Assay type: biochemical
- test-settings: HCV NS5B RdRp enzyme, genotype 1b; read-out: IC50

[
  {
    "chem-smiles": "CCOC(=O)c1cnn(CC)c1C1=Cc2cc(OC)ccc2-c2c(C3CCCCC3)c3ccc(C(=O)NS(=O)(=O)C(C)C)cc3n2C1",
    "IC50": "1 to 500 nM"
  },
  {
    "chem-smiles": "COc1ccc2c(c1)C=C(c1c(C(=O)N3C[C@@H](C)O[C@@H](C)C3)ncn1C(C)C)Cn1c-2c(C2CCCCC2)c2ccc(C(=O)NS(=O)(=O)C(C)C)cc21",
    "IC50": "1 to 500 nM"
  },
  {
    "chem-smiles": "CCn1nc(C)c(C2=Cc3cc(OC)ccc3-c3c(C4CCCCC4)c4ccc(C(=O)NS(=O)(=O)C(C)C)cc4n3C2)c1C(=O)N1CCN(C)CC1",
    "IC50": "1 to 500 nM"
  },
  {
    "chem-smiles": "COc1ccc2c(c1)C=C(c1c(C(=O)N3C[C@@H](C)N(C)[C@@H](C)C3)c(C(C)C)nn1C)Cn1c-2c(C2CCCCC2)c2ccc(C(=O)NS(=O)(=O)C(C)C)cc21",
    "IC50": "1 to 500 nM"
  },
  {
    "chem-smiles": "COc1ccc2c(c1)C=C(c1c(C(=O)N3C[C@@H](C)O[C@@H](C)C3)c(C(C)C)nn1C)Cn1c-2c(C2CCCCC2)c2ccc(C(=O)NS(=O)(=O)C(C)C)cc21",
    "IC50": "1 to 500 nM"
  },
  {
    "chem-smiles": "COc1ccc2c(c1)C=C(c1c(C(=O)N3C[C@@H](C)N(C)[C@@H](C)C3)nnn1C(C)C)Cn1c-2c(C2CCCCC2)c2ccc(C(=O)NS(=O)(=O)C(C)C)cc21",
    "IC50": "1 to 500 nM"
  }
]
